Hello, the source for this data is paper PMC8748748, in case you need it.

- Measurement target: Lys1 (position 1, -----KCNTAT)
- Test method notes: potentiometry
- Condition label: 298 K; 40 mM SDS (stated as the ionic strength); none (ligand 0.5 mM; electrode calibrated by titrating HClO4 with NaOH); metal-free peptide in SDS, helical-like structure by CD
Please go through the items and note down their pKa.
Numbers only.

A selection of reference data follows.
KCNTATCATQRLANFLVRSSNNLGPVLPPTNVGSNTY [Rat amylin (islet amyloid polypeptide, IAPP) (Rattus norvegicus)]
10.44
KCNTATCATQRLANFLVHSSNNFGPILPPTNVGSNTY
10.92
KCNTATCATQRLANFLVHS [Amylin(1-19), membrane-disrupting fragment of human amylin (IAPP) (Homo sapiens)]
9.88

Continue with the next protein.
What pKa value was documented for this protein, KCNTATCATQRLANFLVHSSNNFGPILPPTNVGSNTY [Ac-pramlintide (N-acetylated pramlintide) (Homo sapiens (synthetic analogue); A25P;S28P;S29P)] ?
10.50
